- target-or-system: CXCR4 on cultured U937 and Jurkat cells (human, UniProt P61073 1-352)
- Sequence (P61073 whole entry): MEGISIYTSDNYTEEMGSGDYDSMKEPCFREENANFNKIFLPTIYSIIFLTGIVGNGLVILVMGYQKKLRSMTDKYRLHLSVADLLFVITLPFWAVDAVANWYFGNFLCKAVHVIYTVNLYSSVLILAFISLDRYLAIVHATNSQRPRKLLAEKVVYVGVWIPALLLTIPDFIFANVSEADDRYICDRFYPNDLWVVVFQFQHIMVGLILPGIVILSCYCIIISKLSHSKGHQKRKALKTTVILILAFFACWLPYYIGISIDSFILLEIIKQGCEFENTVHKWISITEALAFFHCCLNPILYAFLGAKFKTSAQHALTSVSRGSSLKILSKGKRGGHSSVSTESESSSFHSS
- assay-text: cell-based or functional assay
Square brackets hold non-standard residues; d marks the D form. Ends that are not written are not given here.
Exercise: state measured Percent Inhibition of CXCR4/CXCL12 Induced p-MEK (1 µM Test Article) for each of the binders provided.
Output spec: scalar in %, unitless text.

## Input Give Percent Inhibition of CXCR4/CXCL12 Induced p-MEK (1 µM Test Article) for LERYHHT[dA]RSSLRPYTK [SEQ ID NO: 40]
## Output 94

## Input Output measured Percent Inhibition of CXCR4/CXCL12 Induced p-MEK (1 µM Test Article) for this item: LERFHHSVRSSLRPYTK [SEQ ID NO: 54]
## Output 92

## Input Write down Percent Inhibition of CXCR4/CXCL12 Induced p-MEK (1 µM Test Article) measured for item LERYHHSVRTSLRPYTK [SEQ ID NO: 73]
## Output 96

## Input Provide only the value of recorded Percent Inhibition of CXCR4/CXCL12 Induced p-MEK (1 µM Test Article) for LRRYHHSVRSSLDPYTK [SEQ ID NO: 67]
## Output 42

## Input Write down Percent Inhibition of CXCR4/CXCL12 Induced p-MEK (1 µM Test Article) measured for item LERYHHS[dA]RSSLRPYTK-NH2 (N-terminus assumed; SMILES CC(C)C[C@H](NC(=O)[C@H](CO)NC(=O)[C@H](CO)NC(=O)[C@H](CCCNC(=N)N)NC(=O)[C@@H](C)NC(=O)[C@H](CO)NC(=O)[C@H](Cc1c[nH]cn1)NC(=O)[C@H](Cc1c[nH]cn1)NC(=O)[C@H](Cc1ccc(O)cc1)NC(=O)[C@H](CCCNC(=N)N)NC(=O)[C@H](CCC(=O)O)NC(=O)[C@@H](N)CC(C)C)C(=O)N[C@@H](CCCNC(=N)N)C(=O)N1CCC[C@H]1C(=O)N[C@@H](Cc1ccc(O)cc1)C(=O)N[C@H](C(=O)N[C@@H](CCCCN)C(N)=O)[C@@H](C)O) [SEQ ID NO: 57]
## Output 72

## Input Provide Percent Inhibition of CXCR4/CXCL12 Induced p-MEK (1 µM Test Article) value for the following binder: LERYHHS[dA]RSSLRPYSK [SEQ ID NO: 78]
## Output 46

## Input Using the record for LERYHHS[dA]RSSLRPYT [SEQ ID NO: 5] , state its measured Percent Inhibition of CXCR4/CXCL12 Induced p-MEK (1 µM Test Article).
## Output 24

## Input Report Percent Inhibition of CXCR4/CXCL12 Induced p-MEK (1 µM Test Article) for LDRYHHSVRSSLRPYTK [SEQ ID NO: 7]
## Output 96

## Input Give a short answer stating reported Percent Inhibition of CXCR4/CXCL12 Induced p-MEK (1 µM Test Article) for [dA]ERYHHSVRSSLRPYTK [SEQ ID NO: 34] .
## Output 2

## Input Return Percent Inhibition of CXCR4/CXCL12 Induced p-MEK (1 µM Test Article) (reported value) for this binder: LERYHHSVRSSLRPYSK [SEQ ID NO: 75]
## Output 100

## Input Entry LERYHHSVRSSLRPYTK [SEQ ID NO: 4] needs its Percent Inhibition of CXCR4/CXCL12 Induced p-MEK (1 µM Test Article) filled in; supply it.
## Output 76
